All values here come from patent US20200157194A1.

MEASURED TARGET: T1, recombinant human GREM1 (hGREM1-His; C-terminal 10His tagged, R&D, #5190-GR) (human, UniProt O60565 25-184)
T1 construct: range 25-184; also called recombinant human GREM1 with a C-terminal decahistidine tag
T1 sequence: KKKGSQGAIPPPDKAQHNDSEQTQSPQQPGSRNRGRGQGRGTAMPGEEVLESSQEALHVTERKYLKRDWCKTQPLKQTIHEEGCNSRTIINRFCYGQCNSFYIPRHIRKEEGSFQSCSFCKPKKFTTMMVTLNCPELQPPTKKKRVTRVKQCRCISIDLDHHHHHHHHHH
TEST DETAILS: BLI Octet, mAb captured, 100 nM GREM1 + 5 uM heparin;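 further: octet Red96 biolayer interferometry at 25 °C, antibodies captured on anti-human IgG Fc biosensors, pH 7.4 HEPES buffer with 0.1 mg/mL BSA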
# Binding Signal with 300 sec Association per entry
Expressed in nm, but write only the number.

>>> result_value("H4H6250P (antibody, human IgG4, V domains shown, H4H prefix = human IgG4 Fc) VH: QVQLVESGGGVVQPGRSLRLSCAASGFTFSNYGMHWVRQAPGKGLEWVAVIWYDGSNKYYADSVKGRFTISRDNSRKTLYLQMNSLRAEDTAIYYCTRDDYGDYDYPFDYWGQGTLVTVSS VL: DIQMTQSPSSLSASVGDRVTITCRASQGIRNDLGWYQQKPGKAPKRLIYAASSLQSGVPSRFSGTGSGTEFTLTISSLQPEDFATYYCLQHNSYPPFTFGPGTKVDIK")
0.32

# context switch: different binder, same Binding Signal with 300 sec Association
### Prompt Using the record for H4H2895N (antibody, human IgG4, V domains shown, H4H prefix = human IgG4 Fc) VH: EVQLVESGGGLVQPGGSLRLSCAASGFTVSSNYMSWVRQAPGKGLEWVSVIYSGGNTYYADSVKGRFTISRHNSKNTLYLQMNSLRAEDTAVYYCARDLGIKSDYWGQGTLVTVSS VL: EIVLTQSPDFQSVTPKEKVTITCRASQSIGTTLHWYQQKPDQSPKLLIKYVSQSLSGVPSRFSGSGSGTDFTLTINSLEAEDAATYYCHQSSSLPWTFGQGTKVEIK , report its Binding Signal with 300 sec Association.
### Response 0.54
